Values of Ki for Androgen receptor (Homo sapiens), collected from a number of published sources:
Target: Androgen receptor (Homo sapiens)
Sequence (P10275 whole entry): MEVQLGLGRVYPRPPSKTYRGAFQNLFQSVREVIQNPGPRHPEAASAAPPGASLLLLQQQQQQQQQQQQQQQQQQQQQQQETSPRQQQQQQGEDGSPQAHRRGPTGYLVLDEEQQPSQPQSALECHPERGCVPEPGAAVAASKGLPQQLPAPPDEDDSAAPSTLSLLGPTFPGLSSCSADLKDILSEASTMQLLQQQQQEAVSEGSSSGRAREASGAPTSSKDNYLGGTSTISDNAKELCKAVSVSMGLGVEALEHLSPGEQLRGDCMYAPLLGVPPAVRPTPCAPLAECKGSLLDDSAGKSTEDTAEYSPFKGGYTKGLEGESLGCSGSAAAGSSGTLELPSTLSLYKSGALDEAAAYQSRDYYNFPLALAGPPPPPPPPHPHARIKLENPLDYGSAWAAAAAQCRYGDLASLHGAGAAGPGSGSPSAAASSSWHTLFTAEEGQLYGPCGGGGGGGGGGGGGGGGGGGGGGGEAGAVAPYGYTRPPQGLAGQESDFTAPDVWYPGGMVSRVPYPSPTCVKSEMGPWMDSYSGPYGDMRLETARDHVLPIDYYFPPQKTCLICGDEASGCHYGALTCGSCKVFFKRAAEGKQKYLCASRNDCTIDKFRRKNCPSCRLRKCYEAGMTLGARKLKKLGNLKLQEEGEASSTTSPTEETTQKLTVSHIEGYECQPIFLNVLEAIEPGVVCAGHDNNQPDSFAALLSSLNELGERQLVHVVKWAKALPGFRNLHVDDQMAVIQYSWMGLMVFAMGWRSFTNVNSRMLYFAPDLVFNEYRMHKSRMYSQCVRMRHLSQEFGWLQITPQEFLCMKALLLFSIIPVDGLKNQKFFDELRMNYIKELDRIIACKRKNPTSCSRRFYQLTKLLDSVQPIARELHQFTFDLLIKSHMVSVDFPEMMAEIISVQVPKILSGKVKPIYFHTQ
recorded.endpoint: Ki (nM)

In the examples that follow, each entry is paired with its recorded Ki.
Recorded Ki (molecule CCCCC1Oc2ccccc2-c2ccc3c(c21)C(C)=CC(C)(C)N3 (stereo not drawn) ): 2050

Recorded Ki (molecule CC(C)CNc1cc(CCc2cccc3ccccc23)nc(NCc2cccc3ccccc23)n1 ): 1500

Recorded Ki (molecule CC[C@@H](C)n1cc(-c2ccc(C#N)cc2)c2ccc(NS(C)(=O)=O)cc21 ): 2550

Recorded Ki (molecule CC1=CC(C)(C)Nc2ccc3c(c21)/C(=C/c1ccccc1N(C)C)Oc1ccc(F)cc1-3 ): 819

Recorded Ki (molecule CC1=CC(C)(C)Nc2ccc3c(c21)C(c1cc(Cl)cc(Cl)c1)Oc1ccccc1-3 (stereo not drawn) ): 2580

Recorded Ki (molecule COc1cc(F)ccc1-c1c(Cc2ccccc2)[nH]c2c(NS(C)(=O)=O)cc(C(C)C)cc12 ): 684

Recorded Ki (molecule Cc1cc(C)cc(N(C)c2cc(C(=O)N3CCCC3)n(C)c2)c1 ): 6100

Recorded Ki (molecule CS(=O)(=O)Nc1cccc2c(-c3cccc(Cl)c3)c[nH]c12 ): 91

P. COc1cccc2oc(=O)c3c(ccc4[nH]c(=O)cc(C)c43)c12
Q. COc1ccccc1-c1c[nH]c2c(NS(C)(=O)=O)cccc12
R. CC1=CC(C)(C)Nc2ccc3c(c21)C(c1cccc(Br)c1)Oc1ccccc1-3 (stereo not drawn)
S. C[C@@H]1C(=O)C(C)(C)Nc2ccc3c(c21)[C@H](c1cccc(C(F)(F)F)c1)Oc1ccccc1-3
T. COc1cc(F)ccc1-c1c(CN(C)Cc2ccccc2)[nH]c2c(N)cc(F)cc12
Inquiry: Exam item: list the entries in increasing order of Ki. Please list each label once, in the requested order.
Reply text: P, Q, S, R, T

----------
Values of pKi for UniProtKB P10275, collected from a number of published sources:
Biological target: UniProtKB P10275
Sequence (P10275 whole entry): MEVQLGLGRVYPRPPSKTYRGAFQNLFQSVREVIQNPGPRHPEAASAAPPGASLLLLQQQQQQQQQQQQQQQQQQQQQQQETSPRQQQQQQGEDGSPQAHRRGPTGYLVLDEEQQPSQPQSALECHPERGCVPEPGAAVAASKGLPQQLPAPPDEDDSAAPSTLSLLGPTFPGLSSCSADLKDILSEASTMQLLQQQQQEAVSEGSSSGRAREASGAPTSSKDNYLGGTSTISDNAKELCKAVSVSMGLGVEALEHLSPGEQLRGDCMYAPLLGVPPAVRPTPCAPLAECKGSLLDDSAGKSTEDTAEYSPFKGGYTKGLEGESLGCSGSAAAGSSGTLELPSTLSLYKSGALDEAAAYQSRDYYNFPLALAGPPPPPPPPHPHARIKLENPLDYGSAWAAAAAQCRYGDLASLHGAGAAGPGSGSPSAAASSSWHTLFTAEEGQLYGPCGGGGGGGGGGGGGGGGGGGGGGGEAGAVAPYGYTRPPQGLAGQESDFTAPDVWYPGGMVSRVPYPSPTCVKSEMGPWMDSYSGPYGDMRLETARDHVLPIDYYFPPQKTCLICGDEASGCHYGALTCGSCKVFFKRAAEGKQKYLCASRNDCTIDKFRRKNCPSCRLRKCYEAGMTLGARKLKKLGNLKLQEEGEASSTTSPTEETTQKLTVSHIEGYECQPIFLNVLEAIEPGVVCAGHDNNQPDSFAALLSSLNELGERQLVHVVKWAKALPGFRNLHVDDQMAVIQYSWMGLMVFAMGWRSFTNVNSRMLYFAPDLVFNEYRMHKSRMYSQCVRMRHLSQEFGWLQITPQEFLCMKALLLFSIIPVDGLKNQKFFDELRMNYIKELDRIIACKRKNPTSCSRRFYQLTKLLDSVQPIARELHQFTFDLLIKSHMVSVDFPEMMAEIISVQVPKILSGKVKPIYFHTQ
pKi: −log10 of the molar value.
recorded.endpoint: pKi

Recorded pKi (molecule C[C@@H]1C(=O)C(C)(C)Nc2ccc3c(c21)[C@H](c1ccccc1)Oc1ccccc1-3 ): 6.14

P. Cc1cc(C)cc(N(Cc2ccc(CO)cc2)c2cc(C(=O)N3CCCC3)n(C)c2)c1
Q. CC1=CC(C)(C)Nc2ccc3c(c21)/C(=C/c1cc(F)ccc1F)Oc1ccccc1-3
Inquiry: Please indicate which entry, P or Q , has the lower recorded pKi value. Give the chosen item's label as your response.
Reply text: P

----------
Target: UniProtKB P10275
Sequence (P10275 whole entry): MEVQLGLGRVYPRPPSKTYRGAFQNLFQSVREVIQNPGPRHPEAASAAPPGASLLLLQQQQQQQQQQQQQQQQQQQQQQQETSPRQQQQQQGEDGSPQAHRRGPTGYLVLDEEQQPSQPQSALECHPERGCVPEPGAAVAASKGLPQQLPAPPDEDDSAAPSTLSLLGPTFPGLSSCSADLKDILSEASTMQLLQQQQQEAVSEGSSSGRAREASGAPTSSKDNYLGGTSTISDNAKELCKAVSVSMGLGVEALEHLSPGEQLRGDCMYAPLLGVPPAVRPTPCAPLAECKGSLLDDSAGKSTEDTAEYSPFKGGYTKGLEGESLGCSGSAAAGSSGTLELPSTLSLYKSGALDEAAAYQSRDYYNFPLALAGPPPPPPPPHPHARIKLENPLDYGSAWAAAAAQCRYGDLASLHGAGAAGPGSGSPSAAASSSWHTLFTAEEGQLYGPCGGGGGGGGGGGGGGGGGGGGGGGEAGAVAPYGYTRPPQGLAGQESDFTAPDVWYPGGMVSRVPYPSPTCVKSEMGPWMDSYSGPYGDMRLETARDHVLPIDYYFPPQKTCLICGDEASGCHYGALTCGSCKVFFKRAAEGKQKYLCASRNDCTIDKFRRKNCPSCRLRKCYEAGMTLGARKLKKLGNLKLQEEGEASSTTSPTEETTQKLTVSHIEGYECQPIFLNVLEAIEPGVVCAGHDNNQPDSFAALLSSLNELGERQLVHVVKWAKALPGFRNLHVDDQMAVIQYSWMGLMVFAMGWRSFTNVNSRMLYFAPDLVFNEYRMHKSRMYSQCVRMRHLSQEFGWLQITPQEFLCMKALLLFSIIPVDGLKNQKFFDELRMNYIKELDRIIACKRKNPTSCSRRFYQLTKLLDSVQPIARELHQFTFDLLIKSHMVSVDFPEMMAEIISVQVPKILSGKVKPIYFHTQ
pKi: −log10 of the molar value.
Values of pKi for UniProtKB P10275, collected from a number of published sources:
recorded.endpoint: pKi

Form field, pKi with UniProtKB P10275, item CC1=CC(C)(C)Nc2ccc3c(c21)C(c1ccccc1)Oc1ccc(Cl)cc1-3 (configuration not stated) : 5.85

Form field, pKi with UniProtKB P10275, item C#C[C@]1(O)CC[C@H]2[C@@H]3CCC4=CC(=O)CCC4=C3[C@@H](c3ccc(N(C)CCCC(=O)N(C)C4CC[C@@]5(C)[C@@H](C4)C[C@@H](O)[C@@H]4[C@@H]5C[C@H](O)[C@]5(C)[C@@H]([C@H](C)CCC(=O)O)CC[C@@H]45)cc3)C[C@@]21C (some centres not stated) : 8.13

Form field, pKi with UniProtKB P10275, item COc1ccc(F)cc1-c1c(-c2ccccc2)[nH]c2c(NS(C)(=O)=O)cccc12 : 6.04

Form field, pKi with UniProtKB P10275, item Cc1ccc(N2C(=O)[C@@H]3C4C=CC(C4)[C@@H]3C2=O)cc1C : 6.40

Form field, pKi with UniProtKB P10275, item CCC(CC)(c1ccc(NCCC(C)(C)O)c(C)c1)c1ccc(NCCC(C)(C)O)c(C)c1 : 5.47

A. C[C@@]1(C(=O)Nc2nccs2)CC2c3ccccc3C1c1ccccc12
B. C#C[C@]1(O)CC[C@H]2[C@@H]3CCC4=CC(=O)CCC4=C3[C@@H](c3ccc(N(C)CCOCCO[C@@H]4CC[C@@]5(C)[C@@H](C4)C[C@@H](O)[C@@H]4[C@@H]5C[C@H](O)[C@]5(C)[C@@H]([C@H](C)CCC(=O)O)CC[C@@H]45)cc3)C[C@@]21C
C. CC(C)(C(=O)Nc1nccs1)[C@@H](c1ccccc1)c1ccc(O)c(Br)c1
Inquiry: Rank order required: pKi, descending. Please list each label once, in the requested order.
Reply text: B, C, A
(B: 8.32, C: 6.43, A: 5.13)

P. C#C[C@]1(O)CC[C@H]2[C@@H]3CCC4=CC(=O)CCC4=C3[C@@H](c3ccc(N(C)CCC[C@H]4[C@H](O)CC[C@@]5(C)[C@@H]4C[C@@H](O)[C@@H]4[C@@H]5C[C@H](O)[C@]5(C)[C@@H]([C@H](C)CCC(=O)O)CC[C@@H]45)cc3)C[C@@]21C
Q. O=C(c1ccc(N(Cc2ccccc2)c2ccc([N+](=O)[O-])cc2)cc1)N1CCCC1
Inquiry: Lab note: record which item had the higher pKi, P or Q . Give the chosen item's label as your response.
Reply text: P
